# credit: patent US8158809B2

tested on: HCT116; assay: Cell colony formation assay; type: cell-based; details: 10 nM; 72 hours with drug; colonies counted after 7 days
# note: exactly 90% is not below, so it is Condition not met; use Condition met for In Vitro Efficacy: Survival (%) of HCT116 strictly under it

{"molecule": "COc1cc([C@@H]2c3cc4c(cc3[C@H](OC(=O)c3cncc(C(=O)O[C@H]5c6cc7c(cc6[C@@H](c6cc(OC)c(OC)c(OC)c6)[C@H]6C(=O)OC[C@@H]65)OCO7)c3)[C@H]3COC(=O)[C@H]23)OCO4)cc(OC)c1OC", "group": "Condition not met"}
{"molecule": "COc1cc(C2c3cc4c(cc3C(OC(=O)COc3cccc(Cl)c3)C3COC(=O)C23)OCO4)cc(OC)c1OC (stereo not shown)", "group": "Condition not met"}
{"molecule": "COc1cc([C@@H]2c3cc4c(cc3[C@H](OC(=O)COc3ccc(F)cc3)[C@H]3COC(=O)[C@H]23)OCO4)cc(OC)c1OC", "group": "Condition not met"}
{"molecule": "COc1cc([C@@H]2c3cc4c(cc3[C@H](OC(=O)C(C)ON=C3c5cc([N+](=O)[O-])cc([N+](=O)[O-])c5-c5c3cc([N+](=O)[O-])cc5[N+](=O)[O-])[C@H]3COC(=O)[C@H]23)OCO4)cc(OC)c1OC (stereo partly shown)", "group": "Condition not met"}
{"molecule": "COc1cc(C2c3cc4c(cc3C(OC(=O)c3ccc([N+](=O)[O-])o3)C3COC(=O)C23)OCO4)cc(OC)c1OC (stereo not shown)", "group": "Condition met"}
{"molecule": "COc1cc([C@@H]2c3cc4c(cc3[C@@H](O[C@@H]3O[C@@H]5CO[C@@H](C)O[C@H]5[C@H](O)[C@H]3O)[C@H]3COC(=O)[C@H]23)OCO4)cc(OC)c1O [Etoposide, reference compound]", "group": "Condition not met"}
{"molecule": "COc1cc([C@@H]2c3cc4c(cc3[C@H](OC(=O)c3cccc(NC(=O)CCl)c3)[C@H]3COC(=O)[C@H]23)OCO4)cc(OC)c1OC", "group": "Condition met"}
{"molecule": "COc1cc([C@@H]2c3cc4c(cc3[C@H](OC(=O)COc3ccc(Br)cc3)[C@H]3COC(=O)[C@H]23)OCO4)cc(OC)c1OC", "group": "Condition not met"}

====

test system: HCT116; assay: Cell colony formation assay; format: cell-based; conditions: 10 nM; 72 hours with drug; colonies counted after 7 days
recorded metric: In Vitro Efficacy: Survival (%) of HCT116

{"molecule": "COc1ccc(OCC(=O)OC2c3cc4c(cc3C(c3cc(OC)c(OC)c(OC)c3)C3C(=O)OCC23)OCO4)cc1 (stereo not drawn)", "recorded value": 100}
{"molecule": "COc1cc(C2c3cc4c(cc3C(OC(=O)COc3ccc(I)cc3)C3COC(=O)C23)OCO4)cc(OC)c1OC (stereo not drawn)", "recorded value": 84.99}
{"molecule": "COc1cc([C@@H]2c3cc4c(cc3[C@H](OC(=O)COc3ccc(Cl)cc3C)[C@H]3COC(=O)[C@H]23)OCO4)cc(OC)c1OC", "recorded value": 99.49}
{"molecule": "COc1cc([C@@H]2c3cc4c(cc3[C@H](OC(=O)COc3ccc5c(C)c(Cl)c(=O)oc5c3)[C@H]3COC(=O)[C@H]23)OCO4)cc(OC)c1OC", "recorded value": 90.45}
{"molecule": "COc1cc([C@@H]2c3cc4c(cc3[C@H](OC(=O)COc3ccc(Cl)cc3Cl)[C@H]3COC(=O)[C@H]23)OCO4)cc(OC)c1OC", "recorded value": 100}
{"molecule": "CC[C@@]1(OC(=O)COc2ccc(C(=O)O[C@H]3c4cc5c(cc4[C@@H](c4cc(OC)c(OC)c(OC)c4)C4C(=O)OCC43)OCO5)cc2)C(=O)OCc2c1cc1n(c2=O)Cc2cc3ccccc3nc2-1 (stereo partly drawn)", "recorded value": 0}
